experiment: Primary qHTS for inhibitors of nuclear receptor binding SET domain protein 2 (NSD2) in an isogenic RCH-ACV NSD2 p.E1099K mutant (9B) (AID 1645876); settings: RCH-ACV NSD2 E1099K (9B) viability, CellTiter-Glo, 72 h; series mostly up to 44.9 µM; also: nearly all actives have a fitted effect of over 70% in size
Records with an inconclusive call do not appear. Active and inactive are the calls of the source. Calls follow the shape of the dose curve; as a rule, active = well fitted inhibition curve with a large enough effect; inconclusive = small, poorly fitted or top-dose-only effect; inactive = flat fitted curve, though single readings scatter.
Field 'call' accepts Yes (active), No (inactive)

Some entries whose results are on file:
Cc1ccc(Cc2c(C)nc3nc(SCC(=O)NCCN4CCNCC4)nn3c2C)cc1
No
C[C@H]1CC[C@@H]2N(C1)C[C@@H]1[C@H]([C@@H](O)[C@H](O)[C@]3(O)[C@H]1C[C@@]14OC5(O)[C@@H](C[C@@H](O)[C@@H]31)[C@]4(C)CC[C@@H]5O)[C@]2(C)O
No
CCc1c(-c2ccccc2)c(-c2ccccc2)nn1-c1ccccc1-c1cccc(OCC(=O)O)c1
No
CC(C)=CCC/C(C)=C/Cc1ccc(O)c(C2OC(=O)c3cc(C(=O)O)cc(O)c32)c1O (stereo unspecified)
No
CC(C)(C)Nc1nc2cc(Cl)c(Cl)cc2nc1S(C)(=O)=O
Yes

Okay, now this compound:
Input: Recorded call for CC1(C)CC[C@]2(C(=O)O[C@@H]3O[C@H](CO)[C@@H](O)[C@H](O)[C@H]3O)CC[C@]3(C)C(=CCC4[C@@]5(C)C[C@@H](O)[C@H](O)[C@@](C)(CO)C5CC[C@]43C)C2[C@@H]1O (stereo partly specified) ?
Output: No

----------
system: NIH3T3; experiment: Cytotoxic Profiling of Annotated Libraries Using Quantitative High-Throughput Screening (AID 1296008); settings: Five cell lines viability, CellTiter-Glo ATP luminescence, 48-72 h; also: nearly all actives have a fitted effect of over 60% in size
Inconclusive results are not listed. Calls of active or inactive are those of the source. Calls follow the shape of the dose curve; as a rule, active = well fitted inhibition curve with a large enough effect; inconclusive = small, poorly fitted or top-dose-only effect; inactive = flat fitted curve, though single readings scatter.
Field 'call' accepts active, inactive

Input: Recorded call for "Nc1ncnc2c1nc(N)n2[C@@H]1O[C@H](CO)[C@@H](O)[C@H]1O" ?
Output: active

Input: Recorded call for "COc1cc2c(cc1OC)-c1[nH]nc(Nc3cccc(F)c3)c1C2" ?
Output: active

Input: Recorded call for CN(C)c1nc(NC2CCC(NCCc3ccc(Br)cc3OC(F)(F)F)CC2)nc2ccccc12 (stereo not drawn) ?
Output: active

----------
test system: HeLa; experiment: Primary qHTS to identify gynecologic anti-cancer compounds using libraries of approved drugs and bioactive compounds (AID 1345084); settings: Gynecologic cancer cell panel viability, ATPlite luminescence, 48 h; series mostly up to 57.5 µM; also: nearly all actives have a fitted effect of over 55% in size
Results filed as inconclusive are left out. Calls of active or inactive are those of the source. Calls follow the shape of the dose curve; as a rule, active = well fitted cell-killing curve with a large enough effect; inconclusive = small, poorly fitted or top-dose-only effect, or effect the other way; inactive = flat fitted curve, though single readings scatter.
Field 'call' accepts true for active, false for inactive

Some entries whose results are on file:
C=C1CCC2C(C)(C(=O)O)CCCC2(C)C1CC/C(=C\CO)CO (centres undefined)
false
COc1cccc(Nc2ncnn3ccc(CN4CC[C@@H](N)[C@H](O)C4)c23)c1
false
Nc1nc(Nc2ccc(S(N)(=O)=O)cc2)n(C(=S)Nc2c(F)cccc2F)n1
true

Input: Recorded call for CC1C(OC(=O)c2ccccc2)C(O)C2C(C(=O)O)=COC(OC3OC(CO)C(O)C(O)C3O)C12 (centres undefined) ?
Output: false

----------
system: PA-1; experiment: Primary qHTS to identify gynecologic anti-cancer compounds using libraries of approved drugs and bioactive compounds (AID 1345084); conditions: Gynecologic cancer cell panel viability, ATPlite luminescence, 48 h; series mostly up to 57.5 µM; also: nearly all actives have a fitted effect of over 55% in size
Inconclusive results are not listed. The source made the active and inactive calls. Calls come from the whole dose curve; as a rule, active = well fitted cell-killing curve with a large enough effect; inconclusive = small, poorly fitted or top-dose-only effect, or effect the other way; inactive = flat fitted curve, though single readings scatter.
Field 'call' accepts Y = active, N = inactive

OC1CCC(Nc2ncc3nc(Nc4c(F)cc(F)cc4F)n([C@H]4CCOC4)c3n2)CC1 (stereo not given in full)
N

Okay, now this compound:
Input: Recorded call for C=C1CCC2C(C(C)(C)O)CCC2(C)CC(O)C(=C)CCC1O (stereo not given) ?
Output: N

----------
test system: HaCat; test: Cytotoxic Profiling of Annotated Libraries Using Quantitative High-Throughput Screening (AID 1296008); details: Five cell lines viability, CellTiter-Glo ATP luminescence, 48-72 h; also: nearly all actives have a fitted effect of over 60% in size; also: potency is read from the fitted curve at half-maximal effect
Records with an inconclusive call do not appear. Activity calls are given as the source filed them. Calls follow the shape of the dose curve; as a rule, active = well fitted inhibition curve with a large enough effect; inconclusive = small, poorly fitted or top-dose-only effect; inactive = flat fitted curve, though single readings scatter.
measure: Potency

Some molecules with known Potency results, for comparison:
CO/N=C(/C(=O)N[C@@H]1C(=O)N2C(C(=O)O)=C(Cn3ccc(=N)n3CCO)CS[C@H]12)c1csc(N)n1
inactive
CC(C)(C)c1ccc(S(=O)(=O)NCc2ccc(C(=O)Nc3cccnc3)cc2)cc1
6.51 µM (active)
COc1ncc(Nc2ncc([C@H](C)N3CCN(S(C)(=O)=O)CC3)cc2-c2nc(C)nc(N)n2)cc1F
0.146 µM (active)
CC1(C)CCC[C@@]2(C)C1[C@H](OC(=O)/C=C/C=C/C(=O)O)C=C1COC(=O)[C@@]12O (stereo not given in full)
inactive

Input: # return recorded Potency for input CC1=C2C(O)C(=O)OC(c3ccoc3)C2(C)CCC1O (stereo not given)
Output: inactive

Input: # return recorded Potency for input "CCCNc1ccc2ncc(-c3ccc4[nH]ncc4c3)n2n1"
Output: 0.411 µM (active)

Input: # return recorded Potency for input "CS(=O)(=O)N1CCC(NC(=O)c2[nH]ncc2NC(=O)c2c(Cl)cccc2Cl)CC1"
Output: 4.61 µM (active)

Input: # return recorded Potency for input CCC(C)/C=C(C)/C=C/c1cc2c(cn1)C(=O)C(C)(OC(C)=O)C(O)=C2Cl (stereo not given)
Output: inactive

Input: # return recorded Potency for input "Nc1nc2c(ncn2[C@@H]2O[C@@H]3COP(=O)(O)O[C@H]3[C@H]2O)c(=O)[nH]1"
Output: inactive

Input: # return recorded Potency for input CC(C)(O)C1CCC(C)(C2CCC3(C)C4CCC5C(C)(C(=O)OC6OC(CO)C(O)C(O)C6O)C(O)CC(O)C56CC46CCC23C)O1 (stereo not given)
Output: inactive

----------
assay: Primary qHTS for inhibitors of nuclear receptor binding SET domain protein 2 (NSD2) in an RCH-ACV wild type WT cells (2C) (AID 1645877); conditions: RCH-ACV (leukaemia line) NSD2 WT (2C) viability, CellTiter-Glo, 72 h; series mostly up to 44.9 µM; also: nearly all actives have a fitted effect of over 70% in size
Records with an inconclusive call do not appear. Activity calls are given as the source filed them. Calls come from the whole dose curve; as a rule, active = well fitted inhibition curve with a large enough effect; inconclusive = small, poorly fitted or top-dose-only effect; inactive = no such curve, though single readings can be large or run the other way.
Field 'call' accepts TRUE (active), FALSE (inactive)

Some entries whose results are on file:
OCc1ccc(O[C@@H]2O[C@H](CO)[C@@H](O)[C@H](O)[C@H]2O)cc1
FALSE
Nc1nc2c(ncn2[C@@H]2O[C@H](CO)[C@@H](O)[C@H]2O)c(=O)[nH]1
FALSE
N#C[C@@H]1C[C@H](F)CN1C(=O)CNC1[C@H]2CN(C(=O)c3ccc(F)cc3)C[C@@H]12 (stereo not given in full)
FALSE
O=C(O)CCCCCC[C@H]1C(=O)NC(=O)N1CC[C@@H](O)C1CCCCC1
FALSE
CCC1=CC2CN(C1)Cc1c([nH]c3ccccc13)[C@@](C(=O)OC)(c1cc3c(cc1OC)N(C)[C@H]1[C@@](O)(C(=O)OC)[C@H](OC(C)=O)[C@]4(CC)C=CCN5CC[C@]31[C@@H]54)C2 (stereo not given in full)
TRUE
CC(O)/C=C/C1(O)C(C)C(O[C@@H]2O[C@H](CO)[C@@H](O)[C@H](O)[C@H]2O)C(O)CC1(C)C (stereo not given in full)
FALSE

Input: Recorded call for CC(=O)OC12COC1CC(O)C1(C)C(=O)C(O)C3=C(C)C(OC(=O)C(O)C(NC(=O)OC(C)(C)C)c4ccccc4)CC(O)(C(OC(=O)c4ccccc4)C21)C3(C)C (stereo not given) ?
Output: FALSE

Input: Recorded call for Cc1ccc(C(=O)N(CCCN)C(c2oc3cc(Cl)ccc3c(=O)c2Cc2ccccc2)C(C)C)cc1 (stereo not given) ?
Output: FALSE

Input: Recorded call for C[C@H](NC(c1cccc(C[P+](=O)O)c1)[C@H](C)O)c1ccc(Cl)c(Cl)c1 (stereo not given in full) ?
Output: FALSE

Input: Recorded call for "CCO[C@@H]1OC(=O)C[C@@H]1NC(=O)[C@@H]1CCCN1C(=O)[C@@H](NC(=O)c1ccc(N)c(Cl)c1)C(C)(C)C" ?
Output: FALSE

Input: Recorded call for CC(=O)NC1C(OC(C)(C)C2CCC3(C)C=C(C4CCC5C4(C)CC(O)C4OC(C(C)(C)O)CCC45C)CCC3O2)OC(CO)C(O)C1O (stereo not given) ?
Output: FALSE

Input: Recorded call for "OCCc1ccc(O[C@@H]2O[C@H](CO)[C@@H](O)[C@H](O)[C@H]2O)cc1" ?
Output: FALSE

----------
tested on: Tov-21-G; assay: Primary qHTS to identify gynecologic anti-cancer compounds using libraries of approved drugs and bioactive compounds (AID 1345084); details: Gynecologic cancer cell panel viability, ATPlite luminescence, 48 h; series mostly up to 57.5 µM; also: nearly all actives have a fitted effect of over 55% in size
Records with an inconclusive call do not appear. Calls of active or inactive are those of the source. Calls come from the whole dose curve; as a rule, active = well fitted cell-killing curve with a large enough effect; inconclusive = small, poorly fitted or top-dose-only effect, or effect the other way; inactive = flat fitted curve, though single readings scatter.
Field 'call' accepts Y for active, N for inactive

CC1=CC(=O)CC(C)(C)C1CCC(C)O[C@@H]1O[C@H](CO[C@@H]2OC[C@@H](O)[C@H](O)[C@H]2O)[C@@H](O)[C@H](O)[C@H]1O (some centres not stated)
N

Okay, now this compound:
Input: Recorded call for NC1(C(=O)NC(CCO)c2ccc(Cl)cc2)CCN(c2ncnc3[nH]ccc23)CC1 (configuration not stated) ?
Output: Y
